Where these numbers come from: the supplement of paper PMC9170038

Test system: MS2 coat protein
Assay info: apparent KD of MS2 coat protein; designed switch direction (-1 OFF switch, 1 ON switch): -1; higher = weaker reporter binding
Assay setup: input ligand: FMN 200 uM
apparent KD of MS2 coat protein values for the sequences below.
Give the value in nM but do not write nM after it.

| Item sequence | Measured target | apparent KD of MS2 coat protein (nM) |
| --- | --- | --- |
| CUAAAUCAUGUAGGAUAUGCAUAGCGAAGCUAUGCAGAAGGACAUGAGGAUCACCCAUGUUCUUCCGUCUGAGAACAGACGGAA [Mat - Exclusion NG 1 - Mod of JL - D32] (Eterna round: R96, puzzle: Exclusion NG 1) | MS2 coat protein | 164 |

*Q* Any idea what its apparent KD of MS2 coat protein is? The sequence is AGGUCCUUCUGGAGACAUGAGGAUCACCCAUGUCGAGUCAGCGAGGAUAUCGGUAAGACAUGUGAUGAGAAGGCGCAGACCGAU [Ex NG3 #43] (Eterna round: R96, puzzle: Exclusion NG 3)
*A* 17.2

*Q* Any idea what its apparent KD of MS2 coat protein is? The sequence is AGCCAAGCAGGAUAUAUCCGGGAUAACAUGAGGAUCACCCAUGUGACCGCUUGAUAUCCUAUAGAAGGGCUUGGGA [Mod of ViennaUCT 24 - Jieux - Exclusion 5] (Eterna round: R97, puzzle: Exclusion 5)
*A* 54.8

*Q* Any idea what its apparent KD of MS2 coat protein is? The sequence is AAAAAAAAGAUAGGAUAUUAGAAAAAAAUGGUGAUAGAGACAUGAGGAUCACCCAUGUAAAAAAAUAAGAAGGGUCAAAAAAAA [AK ExNG2-V2-5] (Eterna round: R96, puzzle: Exclusion NG 2)
*A* 322

*Q* Any idea what its apparent KD of MS2 coat protein is? The sequence is ACUUACUGAGGAUAUACAUAGAUUUACAUGAGGAUCACCCAUGUUCCUCUAAGUAUAUAUGUAGAAGGCAGAAGAG [Mat - Exclusion 5 - JL Mod - D40] (Eterna round: R97, puzzle: Exclusion 5)
*A* 172

*Q* Any idea what its apparent KD of MS2 coat protein is? The sequence is AAAUUGGUAGAGGAUAUUGUACAGGAAACGGUGCGAGAAGGUUGCACAUGAGGAUCACCCAUGUUUAGUUGCGA [EX6 #47] (Eterna round: R97, puzzle: Exclusion 6)
*A* 27.2
